Assay: chemical genetic growth profiling, strain panel (AID 1159580);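 also: tested at 20 µM; growth read once vehicle control cultures reached saturation at 30 °C; 1 = growth at the plate median or of vehicle wells; lower values mean less growth of the strain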
Conditions: S. cerevisiae deletion strains, growth OD, locus YHR030C, strain SLT2, active compounds read low
Screen size: about 5,500 compounds; about 2,000 (36%) were called active. Inconclusive results (about 18%) are left out. The list shows a part of the results.
Below: a set of entries, each annotated with reported normalized growth.
Form: value (number only, do not type unit).

{"columns": ["compound", "normalized growth"],
 "data": [
  ["COC(=O)/C=C1/OC(c2ccc(OC)cc2)=CC1=O", 0.14]
]}

Could you share which normalized growth value was measured for CO[C@H]1[C@@H](O)[C@@H](C)O[C@H](O[C@H]2CCC3(C)C4CCC5(C)[C@@H](C6=CC(=O)OC6)CC[C@]5(O)[C@@H]4CC[C@]3(O)C2)[C@@H]1O (some centres not stated) ?
1.05

// normalized growth lookup, key: COc1ccccc1N1CCN(C(=O)C(C)c2ccc(CC(C)C)cc2)CC1 (configuration not stated)
0.802

Fill in: normalized growth of COc1cc(NC(=S)N2CCN(c3ccccc3OC)CC2)c(OC)cc1Cl is ___
0.95

Reported normalized growth, compound Cc1ccc(OS(=O)(=O)c2ccc(Cl)cc2)c([N+](=O)[O-])n1 : ____
0.775

// returns reported normalized growth for input N#Cc1c(Cl)cccc1N1CCCC1
0.615

What normalized growth value was documented for this compound, COc1ccccc1N1CCN(C(=O)c2cccs2)CC1 ?
0.963

GET /values?readout=normalized growth&item= O=C(Nc1ccc(Cl)cc1)N1CCN(c2ncccc2C(F)(F)F)CC1
0.713

Need normalized growth of CN(C)/C=C1\CSc2ccc(F)cc2C1=O , thanks.
0.102

For the compound COc1cc(O)c2c(=O)cc(-c3ccc(OC)c(-c4c(O)cc(O)c5c(=O)cc(-c6ccc(O)cc6)oc45)c3)oc2c1 , what normalized growth is on record?
0.966

Request the reported normalized growth associated with O=c1c(O)cccc2c(C3Oc4cc(O)cc(O)c4CC3O)cc(O)c(O)c12 (configuration not stated)
0.484

Data request, read-out normalized growth, for Cn1c(SCC(=O)N2CCOCC2)nnc1-c1ccc2ncccc2c1
1.08

* * *

Test: chemical genetic growth profiling, strain panel (AID 1159580);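 also: tested at 20 µM; growth read once vehicle control cultures reached saturation at 30 °C; 1 = growth at the plate median or of vehicle wells; lower values mean less growth of the strain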
Conditions: S. cerevisiae deletion strains, growth OD, locus YFR010W, strain ubp6, active compounds read low
Among all 5,500 compounds or so, about 2,000 (36%) were called active. Roughly 18% stayed inconclusive and do not appear here. This is one part of the list.
Listed next: entries and their corresponding normalized growth.
Please give only the number in your answer, with no unit.

# example entries with known answers
{"columns": ["compound", "normalized growth"],
 "data": [
  ["Nc1nc(/C(=C/CC(=O)O)C(=O)N[C@@H]2C(=O)N3C(C(=O)O)=CCS[C@H]23)cs1", 1],
  ["CCc1ccc2c(O)c3c(cc2c1C(=O)OC)C(=O)c1c(O)ccc(O)c1C3=O", 0.874],
  ["O=C(O)CCc1nc(-c2ccccc2)c(-c2ccccc2)o1", 0.958],
  ["COc1ccccc1N1CCN(CCCNc2cc(=O)n(C)c(=O)n2C)CC1", 1.02],
  ["CC1=CC(=O)C(C(C)C)=CC1=O", 0.93]
]}

What value of measured normalized growth is listed for CCC(=O)OCC(=O)C1(OC(=O)CC)C(C)CC2C3C(Cl)CC4=CC(=O)C=CC4(C)C3C(O)CC21C (stereo not drawn) ?
1.02

Sample C[C@H]1O[C@H](O[C@H]2[C@H](O)[C@@H](O)[C@@H](O[C@H]3[C@H](O)[C@@H](O)C(O)O[C@@H]3CO)O[C@@H]2CO)[C@H](O)[C@@H](O)[C@@H]1N[C@H]1C=C(CO)[C@@H](O)[C@H](O)[C@H]1O (stereo partly drawn) — what was its normalized growth?
0.978

Give the measured normalized growth of CCCCC(=O)O[C@]1(C(=O)CO)[C@@H](C)CC2C3CCC4=CC(=O)C=C[C@]4(C)[C@@]3(F)C(O)C[C@@]21C (stereo partly drawn) .
0.95
